Task for the reader: assign each of the following compounds its reported Ratio.
Test system: Nucleic Acid
Assay: Ratio for human acute promyelocytic leukemia cells(HL-60) cell growth inhibition and [3H]TdR incorporation into DNA in HL-60 cells
Format: functional, cell-based
One number for each entry.

Consider the reported Ratio for these compounds:
- CHEMICAL SMILES: "COc1cc(O)c2c(c1)C(=O)c1cc(CN(CCCl)CCCl)cc(OC)c1C2=O"
  TESTED ON: "Nucleic Acid"
  Ratio: 10.4
- CHEMICAL SMILES: "CCNCc1cc(OC)c2c(c1)C(=O)c1cccc(OC)c1C2=O"
  TESTED ON: "Nucleic Acid"
  Ratio: 0.6
- CHEMICAL SMILES: "COc1cc(O)c2c(c1)C(=O)c1cc(C(Br)Br)cc(O)c1C2=O"
  TESTED ON: "Nucleic Acid"
  Ratio: 579
- CHEMICAL SMILES: "COc1cc(OC)c2c(c1)C(=O)c1cc(C(Br)Br)cc(OC)c1C2=O"
  TESTED ON: "Nucleic Acid"
  Ratio: 9.7
- CHEMICAL SMILES: "O=C1c2cccc(O)c2C(=O)c2c(O)cc(CN(CCO)CCO)cc21"
  TESTED ON: "Nucleic Acid"
  Ratio: 4.2
- CHEMICAL SMILES: "COc1cc(OC)c2c(c1)C(=O)c1cc(CNCCO)cc(OC)c1C2=O"
  TESTED ON: "Nucleic Acid"
  Ratio: 0.24

Provide the reported Ratio of each entry below, same order.
1. COc1cc(O)c2c(c1)C(=O)c1cc(CNCCCl)cc(O)c1C2=O
2. COc1cc(OC)c2c(c1)C(=O)c1cc(C)cc(OC)c1C2=O
3. COc1cc(O)c2c(c1)C(=O)c1cc(CBr)cc(OC)c1C2=O
4. NCc1cc(O)c2c(c1)C(=O)c1cccc(O)c1C2=O
5. COc1cc(OC)c2c(c1)C(=O)c1cc(CN(CCO)CCO)cc(OC)c1C2=O

1. 23.9
2. 0.43
3. 41
4. 2.3
5. 0.17

Consider the following items and state reported Ratio for each.
1. CNC(=O)OCCN(CCOC(=O)NC)Cc1cc(O)c2c(c1)C(=O)c1cccc(O)c1C2=O
2. O=C1c2cccc(O)c2C(=O)c2c(O)cc(C(Br)Br)cc21
3. COc1cc(OC)c2c(c1)C(=O)c1cc(CNCCCl)cc(OC)c1C2=O
4. O=C1c2cccc(O)c2C(=O)c2c(O)cc(Cn3ccnc3)cc21

0.13
15.6
3.1
9

* * *

System: Nucleic Acid
Assay: Ratio for human acute promyelocytic leukemia cells(HL-60) cell growth inhibition and [3H]TdR incorporation into DNA in HL-60 cells
Type: functional, cell-based
Ratio below 6 gives 0 (no); Ratio at or above it gives 1 (yes).

- CHEMICAL SMILES: "COc1cc(C(Br)Br)cc2c1C(=O)c1c(O)cccc1C2=O"
  CATEGORY LABEL: "1 (yes)"
- CHEMICAL SMILES: "CCN(CC)Cc1cc(O)c2c(c1)C(=O)c1cccc(O)c1C2=O"
  CATEGORY LABEL: "1 (yes)"
- CHEMICAL SMILES: "COc1cc(O)c2c(c1)C(=O)c1cc(CNCCO)cc(O)c1C2=O"
  CATEGORY LABEL: "1 (yes)"
- CHEMICAL SMILES: "CC(C)NC(=O)OCCN(CCOC(=O)NC(C)C)Cc1cc(O)c2c(c1)C(=O)c1cccc(O)c1C2=O"
  CATEGORY LABEL: "0 (no)"
- CHEMICAL SMILES: "CCN(CC)Cc1cc(O)c2c(c1)C(=O)c1cc(OC)cc(O)c1C2=O"
  CATEGORY LABEL: "1 (yes)"
- CHEMICAL SMILES: "COc1cc(CN(CCCl)CCCl)cc2c1C(=O)c1c(O)cccc1C2=O"
  CATEGORY LABEL: "1 (yes)"
- CHEMICAL SMILES: "CNC(=O)OCCN(CCOC(=O)NC)Cc1cc(OC)c2c(c1)C(=O)c1cccc(OC)c1C2=O"
  CATEGORY LABEL: "0 (no)"
- CHEMICAL SMILES: "COc1cc(O)c2c(c1)C(=O)c1cc(C(Br)Br)cc(OC)c1C2=O"
  CATEGORY LABEL: "1 (yes)"

Quick check, Ratio >= 6? `COc1cccc2c1C(=O)c1c(OC)cc(C(Br)Br)cc1C2=O`
0 (no)

Quick one: `CCN(CC)Cc1cc(OC)c2c(c1)C(=O)c1cccc(OC)c1C2=O`
1 (yes)

Same thing, different compound: `COc1cccc2c1C(=O)c1c(OC)cc(CNCCO)cc1C2=O`
0 (no)

Can you check `CCNCc1cc(O)c2c(c1)C(=O)c1cccc(O)c1C2=O` next?
0 (no)

All values here come from ChEMBL document CHEMBL1124531.
